System: Mushroom Tyrosinase
Test: Mushroom Tyrosinase Inhibition Test (Tyrosine base)
Assay type: biochemical
Conditions: Tyrosine base (Tyrosine 5 mg/mL, pH 6.5); sample solution 2% in water, 100 μL in 900 μL substrate; 60 minutes, 492 nm
outcomeMeasure: Mushroom Tyrosinase Inhibition (%)

Fill in Mushroom Tyrosinase Inhibition for "CN(C)CCCNC(=O)CCCCCCCCC(=O)O" tested with Mushroom Tyrosinase. 99.3

Check Mushroom Tyrosinase data and give Mushroom Tyrosinase Inhibition for "CC(C)N(CCNC(=O)CCCCCCCC(=O)O)C(C)C" . 77.2

Write down measured Mushroom Tyrosinase Inhibition (Mushroom Tyrosinase) for this molecule. "CN(C)CCCNC(=O)CCCCCCCC(=O)O" 78.4

Write down measured Mushroom Tyrosinase Inhibition (Mushroom Tyrosinase) for this molecule. "CN(C)CCNC(=O)CCCCCCCCC(=O)O" 84.1

Would you please give the reported Mushroom Tyrosinase Inhibition of "CN(C)CCNC(=O)CCCCCCCC(=O)O" with Mushroom Tyrosinase? 82.9
